Measured values drawn from patent US20230364070A1 for this set.

- experimentalSystem: Ba/F3 cells with EGFR exon 20 NPG Ins D770_N771 (Homo sapiens, UniProt P00533, INS770NPG)
- Sequence (P00533 with tags, fused parts or gaps INS770NPG): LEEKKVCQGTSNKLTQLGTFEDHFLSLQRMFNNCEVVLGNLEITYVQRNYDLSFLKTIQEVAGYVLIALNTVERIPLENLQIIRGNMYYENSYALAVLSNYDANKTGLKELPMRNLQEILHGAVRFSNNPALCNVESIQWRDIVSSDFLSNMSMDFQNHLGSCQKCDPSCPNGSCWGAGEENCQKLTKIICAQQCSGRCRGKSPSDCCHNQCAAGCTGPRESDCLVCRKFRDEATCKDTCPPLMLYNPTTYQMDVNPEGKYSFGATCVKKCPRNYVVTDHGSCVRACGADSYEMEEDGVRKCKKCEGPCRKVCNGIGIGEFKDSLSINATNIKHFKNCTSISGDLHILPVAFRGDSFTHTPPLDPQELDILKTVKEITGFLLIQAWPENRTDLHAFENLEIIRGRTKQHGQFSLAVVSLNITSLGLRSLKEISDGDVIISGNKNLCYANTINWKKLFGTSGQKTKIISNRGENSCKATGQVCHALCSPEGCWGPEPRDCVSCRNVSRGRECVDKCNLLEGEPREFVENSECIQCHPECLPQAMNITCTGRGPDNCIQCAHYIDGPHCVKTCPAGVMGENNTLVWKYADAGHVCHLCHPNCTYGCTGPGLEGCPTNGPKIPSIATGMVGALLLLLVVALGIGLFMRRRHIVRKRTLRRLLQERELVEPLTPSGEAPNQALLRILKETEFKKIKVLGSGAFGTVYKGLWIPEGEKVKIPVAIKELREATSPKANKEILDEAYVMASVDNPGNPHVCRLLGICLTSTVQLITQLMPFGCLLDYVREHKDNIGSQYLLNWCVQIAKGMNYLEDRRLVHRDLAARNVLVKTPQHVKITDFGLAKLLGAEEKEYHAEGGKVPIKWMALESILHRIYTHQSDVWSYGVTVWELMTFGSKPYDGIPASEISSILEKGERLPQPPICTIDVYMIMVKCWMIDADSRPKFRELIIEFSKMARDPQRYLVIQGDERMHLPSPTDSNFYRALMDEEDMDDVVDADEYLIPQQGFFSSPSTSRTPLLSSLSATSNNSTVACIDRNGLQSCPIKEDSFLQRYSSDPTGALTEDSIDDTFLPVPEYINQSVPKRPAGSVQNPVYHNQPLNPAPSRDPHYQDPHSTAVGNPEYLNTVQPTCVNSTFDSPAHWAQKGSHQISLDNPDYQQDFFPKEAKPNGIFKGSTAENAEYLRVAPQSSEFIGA
- assayOverview: EGFR activity: Ba/F3 cell viability (CellTiter-Glo, 72 h), EGFR exon 20 NPG insertion
- conditionsUsed: EGFR exon 20 NPG Ins D770_N771, cell viability, read-out: BaF3 NPG IC50
pIC50: −log10 of the molar value.
readout: pIC50

Prompt line: Please state recorded pIC50 (tested on Ba/F3 cells with EGFR exon 20 NPG Ins D770_N771 (Homo sapiens, UniProt P00533, INS770NPG)) of COc1c(F)cccc1Nc1c(-c2ccncc2OCc2cccn3ccnc23)[nH]c2c1C(=O)NCC2
Response line: 6.00 to 7.00

Prompt line: State its pIC50 on Ba/F3 cells with EGFR exon 20 NPG Ins D770_N771 (Homo sapiens, UniProt P00533, INS770NPG): C=CC(=O)N1[C@H](C)CC[C@@H]1C#Cc1cnccc1-c1[nH]c2c(c1Nc1cccc(F)c1OC)C(=O)NCC2
Response line: > 7.00

Prompt line: Which pIC50 is reported with Ba/F3 cells with EGFR exon 20 NPG Ins D770_N771 (Homo sapiens, UniProt P00533, INS770NPG) for this entry: COc1c(F)cccc1Nc1c(-c2ccncc2C#CC(C)(C)NC(=O)/C=C/CN2CCCC2)[nH]c2c1C(=O)NCC2 ?
Response line: > 7.00

Prompt line: So what pIC50 did COc1c(F)cccc1Nc1c(-c2ccncc2C#CC(C)(C)NC(=O)/C=C/CN2CCN(C)CC2)[nH]c2c1C(=O)NCC2 get with Ba/F3 cells with EGFR exon 20 NPG Ins D770_N771 (Homo sapiens, UniProt P00533, INS770NPG)?
Response line: < 6.00

Prompt line: pIC50 of CC#CC(=O)N1CC[C@]1(C)COc1cnccc1-c1[nH]c2c(c1Nc1cccc(F)c1OC)C(=O)NCC2 on Ba/F3 cells with EGFR exon 20 NPG Ins D770_N771 (Homo sapiens, UniProt P00533, INS770NPG)?
Response line: > 7.00

Prompt line: For Ba/F3 cells with EGFR exon 20 NPG Ins D770_N771 (Homo sapiens, UniProt P00533, INS770NPG), provide pIC50 of CC#CC(=O)N1CC[C@@H]1COc1cnccc1-c1[nH]c2c(c1Nc1cccc(C(F)F)c1OC)C(=O)NCC2 please.
Response line: > 7.00

Prompt line: Lab request: please report pIC50 under test system Ba/F3 cells with EGFR exon 20 NPG Ins D770_N771 (Homo sapiens, UniProt P00533, INS770NPG) for C=CC(=O)N1CCC[C@H]1COc1cnccc1-c1[nH]c2c(c1Nc1cccc(F)c1CC)C(=O)NCC2
Response line: > 7.00
